Tested on: HOP-92 NSCLC
Test: NCI-60 one-dose screen, 48 h
Details: 10 µM unless noted
Method: Growth inhibition of the HOP-92 human Non-Small Cell Lung tumor cell line is measured as a screen for anti-cancer activity. Cells are grown in 96 well plates and exposed to the test compound for 48 hours. Compounds are tested at a single concentration, which is 10^-5 M for most compounds. The reported endpoint is percent growth (GI% or GIPRCNT), where numbers from 0 - 100% represent growth inhibition, and numbers from -100% - 0 represent cell death. […]
The panel holds about 83,000 compounds, 20% with a hit somewhere; the sample as a whole holds those more often. Activity calls are given as the source filed them. The calls were made as follows: active = growth percent below 10; inactive = the rest.
Use one of these outcomes when replying: yes (1) for active, no (0) for inactive

The following molecules have reported results that may help.
CC(=O)c1c(N)c(C#N)cn1-c1ccc(Cl)cc1Cl = no (0)
O=C(NNc1nc2cc(F)ccc2n2c(C(=O)N3CCN(C4CC4)CC3)ccc12)c1ncccn1 = no (0)
Cn1cc(-c2cc3nc(-c4c[nH]c5ccc(Cl)cc45)cc(N)n3n2)c2ccccc21 = yes (1)
COCOc1cc2c(=O)c(C)c(C(=O)N[C@@H](Cc3ccccc3)C(O)C(=O)NCc3ccccc3)oc2cc1OC (stereo not given in full) = no (0)
Cc1cc(=O)oc2cc(OCCOc3ccc(/C=C/C(=O)Nc4ccccc4N)cc3)ccc12 = no (0)
Cc1cnc(C(=O)NNc2nc3cc(F)ccc3n3c(C(=O)N4CC5CC(C4)N5)ccc23)cn1 = no (0)
Cn1cc(-c2nc(N)nnc2-c2c[nH]c3ccc(Br)cc23)c2cc(Br)cnc21 = yes (1)
Cc1cc2c(cc1Cl)C(=O)/C(=C/c1ccccc1)O2 = no (0)
CC(=O)Nc1ccc(-n2cnc3cc(-c4ccc(O)cc4)ccc32)cc1C(F)(F)F = no (0)
CCN1C(=O)N(CC)C2NNC(Sc3c(C(=O)O)c4ccccc4n(C4CCCC4)c3=O)=NC21 (stereo not given) = no (0)

Challenge: Assay outcome for `c1ccc(-c2csc(Nc3cccc(Nc4nc(-c5ccccc5)cs4)c3)n2)cc1` : what was it?
Response given: no (0)

Challenge: Hello, I am checking results. What call was entered for `COc1ccc(/C=N/NC(=O)Cn2nc(Cc3ccc(OC)cc3)c3onc(C)c3c2=O)cc1` ?
Response given: yes (1)
